Experiment: A CellTox Green Cytotoxicity Assay to monitor cytotoxicity in HepG2 cells - 40 hour (AID 1224879); further: nearly all actives have a fitted effect of over 40% in size
Conditions: CellTox Green fluorescence; series mostly up to 76.8 µM
Records with an inconclusive call do not appear. The source made the active and inactive calls. The call rests on the fitted dose curve; in most records, active means well fitted activation curve with a large enough effect in the repeat runs; inconclusive means weak or mixed curves; inactive means flat fitted curve, though single readings scatter.
Outcome codes: active, inactive

| molecule | classification |
| --- | --- |
| CC(C)c1nc(CN(C)C(=O)N[C@H](C(=O)N[C@@H](Cc2ccccc2)C[C@H](O)[C@H](Cc2ccccc2)NC(=O)OCc2cncs2)C(C)C)cs1 | active |
| CC(C)C[C@H](NC(=O)[C@H](CCc1ccccc1)NC(=O)CN1CCOCC1)C(=O)N[C@@H](Cc1ccccc1)C(=O)N[C@@H](CC(C)C)C(=O)[C@@]1(C)CO1 | active |
| OC[C@H]1O[C@@H](n2cnc3c(=S)nc[nH]c32)[C@H](O)[C@@H]1O | inactive |
| Cc1cc(O)ccc1O | inactive |
| C[C@@]12CCC[C@H]1[C@@H]1CC[C@H]3C[C@@H](O)CC[C@]3(C)[C@H]1CC2 | inactive |
| C[C@H]1C[C@H](O)c2ccsc2S1(=O)=O | inactive |
| COc1ccc(OC(=O)N(CC(=O)O)Cc2ccc(OCCc3nc(-c4ccccc4)oc3C)cc2)cc1 | inactive |
| CCCCC(CC)COP(=O)(O)O (stereo unspecified) | inactive |
| FC(F)(F)c1ccccc1Cl | inactive |
| O=c1cc(-c2ccccc2)oc2ccc3ccccc3c12 | active |
| CCCCN(CCN(CCCC)C(=O)N1CCOCC1)C(=O)N1CCOCC1 | inactive |
| CCCCC(CC)CN (stereo unspecified) | inactive |
| O=C(O)c1ccc(OCCCOc2ccc(C(=O)O)cc2)cc1 | inactive |
| O=C(O)CCC(=O)C(=O)O | inactive |
| O=c1[nH]c2ccc(Cl)cc2o1 | inactive |
| C=COCC(C)C | inactive |
| COC(=O)CS | inactive |
| CC1(C)[C@@H](OC(=O)CCC(=O)O)CC[C@]2(C)[C@H]3C(=O)C=C4[C@@H]5C[C@@](C)(C(=O)O)CC[C@]5(C)CC[C@@]4(C)[C@]3(C)CC[C@@H]12 | inactive |
| Cc1ccc(C(C)(C)O)cc1 | inactive |
| CN(C(=O)CN(CCO)CC(=O)N(C)C(C)(C)Cc1ccccc1)C(C)(C)Cc1ccccc1 | active |
| CCC1(CO)COCOC1 | inactive |
